The following variants are listed with their measured polymerase ribozyme fitness (log ratio) values.
B1: TPR 5TU (parent)
chain: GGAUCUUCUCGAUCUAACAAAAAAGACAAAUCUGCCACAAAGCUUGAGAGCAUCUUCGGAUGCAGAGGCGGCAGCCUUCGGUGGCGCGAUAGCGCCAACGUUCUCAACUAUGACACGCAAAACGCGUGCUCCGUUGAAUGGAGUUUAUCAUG

Variants of: B1
Test: polymerase ribozyme fitness, log enrichment relative to wild type (log ratio); higher = more active; in vitro selection for triplet polymerase activity
Variants at the floor of the assay were thinned out.
quantityName: polymerase ribozyme fitness (log ratio)

>  <variantLabel>
U61A A107C G128U U139A

>  <quantityName>
polymerase ribozyme fitness (log ratio)

>  <rel>
≤

>  <value>
-4.2

$$$$
>  <variantLabel>
A91C U102G A138C

>  <quantityName>
polymerase ribozyme fitness (log ratio)

>  <rel>
≤

>  <value>
-4.2

$$$$
>  <variantLabel>
C8A A20G G68C C85A G126A

>  <quantityName>
polymerase ribozyme fitness (log ratio)

>  <rel>
≤

>  <value>
-4.2

$$$$
>  <variantLabel>
U6C C32U G84A G88C U111C A150U

>  <quantityName>
polymerase ribozyme fitness (log ratio)

>  <rel>
≤

>  <value>
-4.2

$$$$
>  <variantLabel>
A52U U55A A115U C118A G126U A150U

>  <quantityName>
polymerase ribozyme fitness (log ratio)

>  <rel>
≤

>  <value>
-4.2

$$$$
>  <variantLabel>
G11C A19G A52G G68C A97G C132A U134C U144A

>  <quantityName>
polymerase ribozyme fitness (log ratio)

>  <rel>
≤

>  <value>
-4.2

$$$$
>  <variantLabel>
G80C U90G

>  <quantityName>
polymerase ribozyme fitness (log ratio)

>  <rel>
≤

>  <value>
-4.2

$$$$
>  <variantLabel>
G84C U134G

>  <quantityName>
polymerase ribozyme fitness (log ratio)

>  <rel>
≤

>  <value>
-4.2

$$$$
>  <variantLabel>
G48C G59C G92U C99G A106U

>  <quantityName>
polymerase ribozyme fitness (log ratio)

>  <rel>
≤

>  <value>
-4.2

$$$$
>  <variantLabel>
U13G A28U G71A G88C

>  <quantityName>
polymerase ribozyme fitness (log ratio)

>  <rel>
≤

>  <value>
-4.2

$$$$
>  <variantLabel>
U33G

>  <quantityName>
polymerase ribozyme fitness (log ratio)

>  <rel>
=

>  <value>
-2.4

$$$$
>  <variantLabel>
A20C U53A G84A

>  <quantityName>
polymerase ribozyme fitness (log ratio)

>  <rel>
=

>  <value>
-1.69

$$$$
>  <variantLabel>
G34A C36G C69G C76A C95G G112A

>  <quantityName>
polymerase ribozyme fitness (log ratio)

>  <rel>
≤

>  <value>
-4.2

$$$$
>  <variantLabel>
U15G C95U U104G U144A

>  <quantityName>
polymerase ribozyme fitness (log ratio)

>  <rel>
=

>  <value>
-0.599

$$$$
>  <variantLabel>
U4A G143U

>  <quantityName>
polymerase ribozyme fitness (log ratio)

>  <rel>
=

>  <value>
-3.47

$$$$
>  <variantLabel>
A22U A52G C75U G83U U134C A142C

>  <quantityName>
polymerase ribozyme fitness (log ratio)

>  <rel>
=

>  <value>
-3.51

$$$$
>  <variantLabel>
G71C U111G

>  <quantityName>
polymerase ribozyme fitness (log ratio)

>  <rel>
≤

>  <value>
-4.2

$$$$
>  <variantLabel>
U6G A26C G83U A89U

>  <quantityName>
polymerase ribozyme fitness (log ratio)

>  <rel>
=

>  <value>
-3.85

$$$$
>  <variantLabel>
C14G C27A A37U C54U G67A G94U C105G

>  <quantityName>
polymerase ribozyme fitness (log ratio)

>  <rel>
≤

>  <value>
-4.2

$$$$
>  <variantLabel>
C35U C72U U82G C96U A106G G112A

>  <quantityName>
polymerase ribozyme fitness (log ratio)

>  <rel>
≤

>  <value>
-4.2

$$$$
>  <variantLabel>
U78G G86U

>  <quantityName>
polymerase ribozyme fitness (log ratio)

>  <rel>
≤

>  <value>
-4.2

$$$$
>  <variantLabel>
G83C C96U C108G G143U

>  <quantityName>
polymerase ribozyme fitness (log ratio)

>  <rel>
≤

>  <value>
-4.2

$$$$
>  <variantLabel>
G80A A89U C95U A120G

>  <quantityName>
polymerase ribozyme fitness (log ratio)

>  <rel>
=

>  <value>
-1.11

$$$$
>  <variantLabel>
C79A G84A A120U U127C U144C

>  <quantityName>
polymerase ribozyme fitness (log ratio)

>  <rel>
≤

>  <value>
-4.2

$$$$
>  <variantLabel>
U104G A142G G152U

>  <quantityName>
polymerase ribozyme fitness (log ratio)

>  <rel>
=

>  <value>
-3.73

$$$$
>  <variantLabel>
U6A A28C U44A U45A A49U C85G U144A

>  <quantityName>
polymerase ribozyme fitness (log ratio)

>  <rel>
≤

>  <value>
-4.2

$$$$
>  <variantLabel>
C38U C63U A73G C118U A150G

>  <quantityName>
polymerase ribozyme fitness (log ratio)

>  <rel>
=

>  <value>
-2.88

$$$$
>  <variantLabel>
C76A C85U A137G

>  <quantityName>
polymerase ribozyme fitness (log ratio)

>  <rel>
=

>  <value>
-1.76

$$$$
>  <variantLabel>
C85A G143U

>  <quantityName>
polymerase ribozyme fitness (log ratio)

>  <rel>
=

>  <value>
-2.37

$$$$
>  <variantLabel>
C93A A115C

>  <quantityName>
polymerase ribozyme fitness (log ratio)

>  <rel>
=

>  <value>
-3.22

$$$$
>  <variantLabel>
C118A

>  <quantityName>
polymerase ribozyme fitness (log ratio)

>  <rel>
=

>  <value>
-0.751

$$$$
>  <variantLabel>
A17G C18G A64G C85A G100A A106U A119U

>  <quantityName>
polymerase ribozyme fitness (log ratio)

>  <rel>
≤

>  <value>
-4.2

$$$$
>  <variantLabel>
U61G G62A C87U

>  <quantityName>
polymerase ribozyme fitness (log ratio)

>  <rel>
=

>  <value>
-1.28

$$$$
